target: E. coli DdlB enzyme (D-alanine:D-alanine ligase) (Escherichia coli, UniProt P07862); construct: made in house; host or cells: E. coli; test: biochemical; conditions: at 0.5 mM; read-out: DdlB inhibition, RA (Residual Activity)
reported_metric: remaining activity at 500 µM (%)
# unit: % | format: bare number

Worked cases, answers included:
Cc1cccc(-c2ccnc3c(C#N)cnn23)c1 = 100
NC(=O)c1cnn2c(-c3ccccc3)ccnc12 = 96
CCOC(=O)c1cnn2c(-c3ccc(C)c(C)c3)ccnc12 = 100
N/C(=N\O)c1cnn2c(-c3cccc(C(F)(F)F)c3)ccnc12 = 94
O=C(O)c1cnn2c(-c3ccsc3)ccnc12 = 89

Request: What does the data say about its remaining activity at 500 µM? Entry: "Cc1ccc(-c2ccnc3c(C(=O)O)cnn23)cc1C"
Response: 100

Request: Request the reported remaining activity at 500 µM associated with "O=C(O)c1cnn2c(-c3ccc4c(c3)OCO4)ccnc12"
Response: 100

Request: Which remaining activity at 500 µM value belongs to "Cc1ccc(-c2ccnc3c(C(=O)O)cnn23)cc1" ?
Response: 101

Request: Quick check: remaining activity at 500 µM of "O=C(O)c1cnn2c(-c3cccc([N+](=O)[O-])c3)ccnc12" ?
Response: 89

* * *

target: E. coli DdlB enzyme (D-alanine:D-alanine ligase) (Escherichia coli, UniProt P07862); construct: made in house; host or cells: E. coli; test: biochemical; conditions: residual activity of DdlB, fragment library screening, tested concentration 3.0 mM; read-out: DdlB RA
reported_metric: remaining activity at 3000 µM

Request: Please give the measured remaining activity at 3000 µM for this compound: CN(CC1CCOC1)C(=O)C1CC1 (centres unmarked) [Compound S213-1842]
Response: 91%

Request: Bench note: what remaining activity at 3000 µM did Cn1nc(C(=O)O)c2c1CCOC2 [Compound P207-8979] show?
Response: 88%

Request: GET /values?readout=remaining activity at 3000 µM&item= O=c1cc(N2CCOCC2)cn[nH]1 [FF20-1495]
Response: 88%

Request: # query: remaining activity at 3000 µM of entry CC(C)n1ncc(C(N)=O)c1N [Compound 8014-2120]
Response: 92%

Request: I am curious: what remaining activity at 3000 µM value has been reported for O=C(Nc1nnc[nH]1)C1CCC1 [Compound P774-4606] ?
Response: 94%

* * *

target: E. coli DdlB enzyme (D-alanine:D-alanine ligase) (Escherichia coli); construct: made in house; host or cells: E. coli; assay: biochemical; details: tested concentration 1.7 mM; read-out: DdlB RA
reported_metric: remaining activity at 1700 µM
Express your answer as a number followed by its unit.

Worked examples follow.
Cc1nc(N2CCC(C(=O)O)CC2)cc(C(F)(F)F)n1 = 105%
NS(=O)(=O)c1ccc(NC(=O)CCn2cnnn2)cc1 = 99%
Cc1cccc(Cc2n[nH]c(CC(=O)NC3CCCC3)n2)c1 = 97%
O=S(=O)(c1c[nH]c2ncccc12)N1CCc2ccccc21 = 83%
Cc1ccc(S(N)(=O)=O)cc1NC(=O)c1cccnc1 = 100%

Request: Request the reported remaining activity at 1700 µM associated with "O=C(O)c1cc(Br)cc(Br)c1O"
Response: -39%

Request: Please look up its remaining activity at 1700 µM: "COc1cccc2c1ncc1c(=O)n3cccc(O)c3nc12"
Response: 72%

Request: Which remaining activity at 1700 µM reading was recorded for the molecule "Cc1cc(C)cc(NC(=O)c2ccc3cccc(O)c3n2)c1" ?
Response: 92%

Request: So what's the measured remaining activity at 1700 µM for this one? "COC(=O)CCC(=O)Nc1ccc(S(N)(=O)=O)cc1"
Response: 89%

Request: What measured remaining activity at 1700 µM goes with "COc1ccc(-c2c(Nc3cccc(C)c3)c(=O)c2=O)cc1" ?
Response: 100%

Request: // lookup remaining activity at 1700 µM for CCCNc1c(N2CCCC(C(=O)OCC)C2)c(=O)c1=O (centres unmarked)
Response: 108%
